system: Plasmodium falciparum Sir2 (PF13_0152, Sir2A); assay: pfSir2 binders on small-molecule microarrays, primary screen, biochemical, small-molecule microarray, 635 nm fluorescence (AID 1098); conditions: small-molecule microarray binding, fluorescence 635 nm; higher = more signal;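 also: score merges spot fluorescence intensity with its signal-to-noise ratio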
Property: composite z-score; scope: individual compounds
# output: bare number, no unit

Record excerpt, results attached:
• C=CCOC(=O)[C@H]1[C@@H]2C(=O)O[C@@H](c3ccccc3)[C@@H](c3ccccc3)N2[C@@H](c2ccc(OCCOC(=O)[C@@H]3C[C@@H]4C(=O)N[C@@H](Cc5ccccc5)C(=O)N4[C@@H]3c3ccc(O)cc3)cc2)[C@]12C(=O)Nc1ccc(I)cc12 = 1.5
• CC(CO)N1C(=O)[C@@H]2[C@H]3C(=O)OCC=C[C@H]3OC23C=CCN(c2ccc4ccccc4c2)C(=O)[C@@H]13 (stereo partly drawn) = -0.893

Continue with the next compound.
Find the recorded composite z-score belonging to COC(=O)[C@H](Cc1ccccc1)N1CC(C)(OC)O[C@@H](Cc2ccccc2)[C@H]1/C=C/C1CC1 (stereo partly drawn) and report it.
0.292

----------
Entries and their composite z-score values follow.
biological target: Torsin-1A (Homo sapiens); assay: torsin A binders from cell lysate, primary screen, small-molecule microarray, wild-type, 635/667 nm (AID 1149); conditions: COS7 hTOR1A-WT lysate, 635 nm fluorescence, higher = more signal
Answer with a bare number; do not write a unit.

Sample answers from the record:
- COCCCNC(=O)[C@@]1(Cc2ccccc2I)c2ccccc2C(=O)N(Cc2ccccc2C(F)(F)F)[C@H]1c1ccc(CO)cc1: 0.0167
- CCCCN1CC=CC23O[C@@H]4C=CCCOC(=O)C4[C@H]2C(=O)N(CCO)[C@@H]3C1=O (stereo not given in full): -0.856
- C=C(CCCC)C(=O)CC[C@@H](OC(C)=O)c1ccc(OCCO)cc1: 1.34

Which composite z-score is reported with Torsin-1A (Homo sapiens) for this entry: `C=C[C@H](C)[C@@H](OC(=O)Nc1ccc(SC)cc1)c1ccc(OCCO)cc1` ?
-0.0803

API: value(readout= composite z-score, system= Torsin-1A (Homo sapiens), query= `C=C(CCCC)/C(=C/C[C@@H](OC(C)=O)c1cccc(OCCO)c1)c1cc(C(=O)OC)ccc1OC` )
0.146

----------
target: Fibroblast growth factor 10 (Homo sapiens); assay: FGF10 binders on small-molecule microarrays, primary screen, biochemical, small-molecule microarray, 635 nm fluorescence (AID 1102); settings: FGF10 binding, fluorescence 635 nm, higher = more signal
Use true when the recorded composite z-score is no lower than 0.8; use false when it is lower.

Reported composite z-score at or above 0.8? COC(=O)C1=CC(c2ccc(CO)cc2)=CC(C2CC2)N(Cc2cc3c(cc2Br)OCO3)C=C1C(=O)OC (stereo unspecified)
true

Decide: composite z-score of `COC(=O)[C@]1(Cc2ccccc2CN=[N+]=[N-])N=C(c2ccc(OCCCO)cc2)O[C@@H]1c1ccccc1N=[N+]=[N-]` >= 0.8?
false

Record `C=C[C@H](OC)[C@@H](O)c1ccc(OC)c(O)c1` ; criterion: composite z-score no lower than 0.8. Met?
false

Could you please find out whether `O=C(N1CCOCC1)[C@]1(CCS(=O)(=O)c2ccccc2)N=C(c2ccc(OCCCO)cc2)O[C@@H]1c1ccccc1` has composite z-score that meets 0.8 or exceeds it?
false

Could you tell me if the measured composite z-score of `C=CCNC(=O)[C@@H]1[C@H]2C(=O)O[C@H](c3ccccc3)[C@H](c3ccccc3)N2[C@H](c2ccc(OCCO)cc2)[C@@]12C(=O)N(C(=O)OCCOC)c1ccccc12` reaches 0.8 or more?
true

Check if composite z-score >= 0.8 (inclusive). Item: `[N-]=[N+]=NCc1ccccc1[C@H]1OC(c2ccc(OCCCO)cc2)=N[C@@]1(CCS(=O)(=O)c1ccccc1)C(=O)O`
false

I'd appreciate it if you could say whether CN1C2C=C(c3ccc(CO)cc3)C(C3C(=O)N(C(N)=O)C(=O)C32)C1C1CC1 (stereo unspecified) has composite z-score at least equal to 0.8.
false

Please check the record `C=C[C@H](C)[C@@H](OC(=O)Nc1ccc(SC)cc1)c1ccc(OCCO)cc1` and state if its composite z-score is at or above 0.8.
true

Could you verify whether the entry CCCCCN1CC=CC23O[C@@H]4/C=C\CCCOC(=O)C4[C@H]2C(=O)N(CCCCCO)[C@@H]3C1=O (stereo partly specified) shows composite z-score of no less than 0.8?
false
